Please go through the items and note down their % Neutralization.
# MEASURED ON: hemagglutinin on live influenza A virus, A/California/4/09 H1N1 (Influenza A virus …)
# TEST NAME: cell-based or functional assay
Field format: number, assumed %, no unit text.

Query TCN-539 (5056_A08) (antibody, V domains shown) VH: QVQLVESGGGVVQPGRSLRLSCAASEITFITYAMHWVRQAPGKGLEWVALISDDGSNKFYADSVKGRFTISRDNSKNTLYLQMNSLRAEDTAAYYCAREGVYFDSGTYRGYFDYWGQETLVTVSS VL: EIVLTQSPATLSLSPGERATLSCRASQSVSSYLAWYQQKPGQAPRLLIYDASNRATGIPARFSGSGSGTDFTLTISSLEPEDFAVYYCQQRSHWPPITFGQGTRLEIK yields % Neutralization of 0

Query TCN-556 (5089_K12) (antibody, V domains shown) VH: QVQLVQSGAEVKKPGASVKVSCKASGYTFIGYDMHWVRQAPGQGLEWMGWINAKRGGTNYAQKFQGRVTMTRDTSISTAYMELNSLRSDDTAVYYCARGVGSRTTIFGVLNPEFDYWGQGTLVTVSS VL: QSALTQPPSASGSPGQSVTISCTGSSSDVGGYDYVSWYQQHPGKAPKLLIYEVTKRPSGVPDRFSGSKSGNTASLTVSGLQAEDEADYYCSSYAGNYNHVFGPGTKVTVL yields % Neutralization of 0

Query TCN-553 (5261_C18) (antibody, V domains shown) VH: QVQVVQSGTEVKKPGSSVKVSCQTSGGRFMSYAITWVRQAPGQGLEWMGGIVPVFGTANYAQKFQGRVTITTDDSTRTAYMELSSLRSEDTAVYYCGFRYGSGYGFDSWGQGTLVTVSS VL: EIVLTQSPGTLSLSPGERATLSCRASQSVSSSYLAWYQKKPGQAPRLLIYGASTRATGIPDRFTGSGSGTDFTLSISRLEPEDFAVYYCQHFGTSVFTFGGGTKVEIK yields % Neutralization of 83

Data provenance: patent US20150086555A1
